System: SK-MEL-5 melanoma
MEASUREMENT NOTES: NCI-60 one-dose screen, 48 h
EXPERIMENTAL SETUP: 10 µM unless noted
Experimental: Growth inhibition of the SK-MEL-5 human tumor cell line is measured as a screen for anti-cancer activity. Cells are grown in 96 well plates and exposed to the test compound for 48 hours. Compounds are tested at a single concentration, which is 10^-5 M for most compounds. The reported endpoint is percent growth (GI% or GIPRCNT), where numbers from 0 - 100% represent growth inhibition, and numbers from -100% - 0 represent cell death. For example, a value of 40 represents 60% growth inhibition. […]
Compounds without any hit were thinned out: in the full panel of roughly 83,000, 20% have a hit. Activity calls are given as the source filed them. How the source made its calls: active means growth percent below 10; inactive means the rest.
Write down one outcome, taken from true = active, false = inactive

Recorded test outcome, item COc1ccc(-c2oc(=O)ccc2-c2cc(OC)c(OC)c(OC)c2)cc1O
false

Further cases:
Recorded test outcome, item Cc1ccc(N=Nc2c(N)nn(-c3ccccc3)c2N)cc1
true

Recorded test outcome, item CN1CCN(Cc2cc(NC(=O)c3cccc(C#Cc4cccc5[nH]nc(N)c45)c3)cc(C(F)(F)F)c2)CC1
true

====

Test system: NCI/ADR-RES ovarian
MEASUREMENT NOTES: NCI-60 one-dose screen, 48 h
EXPERIMENTAL SETUP: 10 µM unless noted
The panel holds about 83,000 compounds, 20% with a hit somewhere; the sample as a whole holds those more often. Active and inactive are the calls of the source. How the source made its calls: active means growth percent below 10; inactive means the rest.
Write down one outcome, taken from true (1) = active, false (0) = inactive

Worked examples, 3 compounds total:
Recorded test outcome, item Cc1cc(N2CCN(C)CC2)nc(NCc2cc(Nc3ccnc4cc(Cl)ccc34)ccc2F)n1
false (0)

Recorded test outcome, item COCCCOc1cc(C[C@@H](C[C@H](N)[C@@H](O)C[C@H](C(=O)NCC(C)(C)C(N)=O)C(C)C)C(C)C)ccc1OC
false (0)

Recorded test outcome, item O=C1/C(=C/c2ccccc2)CN(C(=O)c2cccnc2)C/C1=C\c1ccccc1
false (0)

Here is the next item to consider.
Recorded test outcome, item C[Se]C(=O)CC1=C2C=C(F)C=CC2/C(=C\c2ccc(S(C)=O)cc2)C1C (centres undefined)
true (1)

====

Test system: SN12C renal
MEASUREMENT NOTES: NCI-60 one-dose screen, 48 h
EXPERIMENTAL SETUP: 10 µM unless noted
This is part of a sample that, as a whole, favours compounds with a hit. Of some 83,000 tested, about 20% had one in any assay. Active and inactive are the calls of the source. The calls were made as follows: active = growth percent below 10; inactive = the rest.
Write down one outcome, taken from y (active), n (inactive)

Worked examples, 5 compounds total:
Recorded test outcome, item COC(=O)C1=C(C(=O)Nc2cccnc2)C2OC1(C(Cc1ccccc1)Oc1ccccc1)C1OC21 (stereo unspecified)
n

Recorded test outcome, item COc1cc2c3c(n(CCCCNCCCn4c5c(c6cc(OC)c(OC)cc6c4=O)C(=O)c4cc6c(cc4-5)OCO6)c(=O)c2cc1OC)-c1cc2c(cc1C3=O)OCO2
n

Recorded test outcome, item CN1CCN(Cc2cc(NC(=O)c3cccc(C#Cc4cccc5[nH]nc(N)c45)c3)cc(C(F)(F)F)c2)CC1
n

Recorded test outcome, item O=C1NC(=C(Cl)Cl)/C(=N/S(=O)(=O)NCCc2c[nH]c3ccccc23)N1
n

Recorded test outcome, item O=C(CCl)Nc1ccc2c(Nc3cc(O)ccc3Cl)ncnc2c1
y

Further cases:
Recorded test outcome, item COc1ccc(NC(=O)c2cccc(C3CCc4c(cc(OC)c(OC)c4OC)O3)c2)cc1 (stereo unspecified)
n

Recorded test outcome, item CCN(CC)S(=O)(=O)c1ccc(S(=O)(=O)N2CCC[C@@H](C(=O)N3CCN(C(=O)OC(C)(C)C)CC3)C2)cc1
n

Recorded test outcome, item COC(=O)/C(CCC=C(C)C)=C1\[C@@H](OC(C)=O)C[C@@]2(C)[C@H]1CC(=O)[C@H]1[C@@]3(C)CCC(N4CCCC4)[C@@H](C)[C@@H]3CC[C@@]12C (stereo partly specified)
n

FYI, the data here is from PubChem BioAssay (NCI).
